System: MS2 coat protein
procedure summary: apparent KD of MS2 coat protein; higher = weaker reporter binding
condition set: Eterna round: R107; input ligand: arginine 13.2 mM
This listing pairs sequences with measured apparent KD of MS2 coat protein.
Give a bare numeral; the unit nM is implied.

Check out these entries, answers already filled in.
seq text	apparent KD of MS2 coat protein / nM
UGGCGAGAAGGAAGGAGCGUCAGCUGAGUCACAUGAGGAUCACCCAUGUAGGACAUGGUGUGACAGGUAGGUCGCCUUCUGCCCU [SS-ArgB18]	16.9
AAAUAAAUACAUGAGGAUCACCCAUGUGAAGGAGCGCCCGUUAGGGCAGGUAGGUCGCACAUGAAUAACUCCGUGCAAAAGCACA [ArgEX 18 #OpenEnded]	20.9
UGACAGAUAACCGCUGGUGCUCUCGAGUUGCGAGGACCGGUACGGCCGCCACUCGACAACAUGAGGAUCACCCAUGUUGCGGGUC [Lareara]	30.7
GGGCAAGAGGGAAGGAGCGUCGGCUGGGUAACAUGAGGAUCACCCAUGUAGCACAUGGUGUGGCAGGUAGGUCGCCCUCUGCCCU [SS-ArgB9]	71.1
AGUUAUUUCCGAAGGAGCGUUAUACAUGAGGAUCACCCAUGUACAUGAGGUUCAACAUGAAAACAGGUAGGUCGCGGAUUUUGUC [Exclusion Arginine B4]	15.6
UGACGAGGCCUGGAUACCAGCGACAUGAGGAUCACCCAUGUAUGAGGAUCAGCCAUGUUAUGCCCUUGGCAGCCACGAAGGUCAG [WQQMULLIN]	21.6
UUAAUGGAGCUUUUAUUUACGAUUUCUGAUACCAGUGUUUCAUUUCACCCUUGGCAGCAGUGACAUGAGGAUCACCCAUGUAAUA [JR_Nu_SSTheophyA_Sub021]	30.3
AGCGGAACGGAAGGGUCCCGAAAUUGUGAUACCAGCCUUGAAUCCGGCCCUUGGCAGCACAUGAGGAUCACCCAUGUACUGCGGU [Arimaed]	11.4
GUUGGAUUUUCGGCCGCCACUGAGAGAGUCAUGUGAACAUGAGGAUCACCCAUGUAAUAUAUAUACAGGACCGGGAGGGUUGUAA [4.L]	35
ACCGCAUCCGUAUAGGAUGCGGCCCAUGAAGGAGCGUGGGAAACCACAGGUAGGUCGCAUGGAUUACAUGAGGAUCACCCAUGUG [Skyfall]	104

Return the recorded apparent KD of MS2 coat protein value; entry: AAUAUAUAUCACGAACUGUGGUGUAUGUUGCGAGGACCGGUACGGCCGCCACUCGGCCGGUGGUACAUGAGGAUCACCCAUGUUG [XTryp A #9]
35.3

Return the recorded apparent KD of MS2 coat protein value; entry: ACUGUCUUUGAUGAUAUGUAUGGGUCAUUGCGAGGACCGGUACGGCCGCCACUCGGUCCGCCACAUGAGGAUCACCCAUGUCUAU [theeternabot_exclusion_MS2_Trp_A_37]
56.8

Return the recorded apparent KD of MS2 coat protein value; entry: CCAUGCAGGUCGGCCGCCACUACACACAUGAGGAUCACCCAUGUAGUUACUGGGUGAAGUGGCAGUAGGACCGGGACCUGCAUAU [Brourdmod11]
94.5
